Reference source: paper PMC5540273

Each record here notes measured %Inh.
# Tested on: ZAK
# CONDITIONS USED: concentration: 1 μM,replicates: in singlicate; n = 1;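 further: KINOMEscan kinase panel screen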
REPORTED ENDPOINT: %Inh (%)

1) CS(=O)(=O)Nc1ccc(-c2ccnc3[nH]ccc23)cc1; 13
2) COC(=O)c1cccc(NC(=O)NC2CCN(c3ccnc(NCc4ccc(F)cc4)n3)CC2)c1; 0
3) CCNCC(Cc1ccccc1)NC(=O)c1cc(Br)c(-c2ccnc3[nH]ccc23)s1.Cl.Cl (stereo not shown); 15
4) O=C(Nc1n[nH]c2cc(-c3ccco3)ccc12)C1CC1; 0
5) Cn1ccc2ncnc(Oc3ccc(NC(=O)Nc4ccnc(C(F)(F)F)c4)c(Cl)c3)c21; 17
6) O=C(Nc1ccc(Oc2ccc3nc(NC(=O)C4CC4)cn3n2)c(F)c1)c1cccn(-c2ccccc2)c1=O; 77
7) CCn1c(-c2nonc2N)nc2cncc(CNC3CCNCC3)c21.Cl; 7
8) Cn1ccc2ncnc(Oc3ccc(NC(=O)Nc4cccc(C(F)(F)F)c4)c(F)c3)c21; 18
9) CCn1c(-c2nonc2N)nc2cncc(Br)c21; 15
10) COc1cc2nccc(Nc3ccc(Oc4ccccc4)cc3)c2cc1OC.Cl; 55
11) O=c1[nH]cc(-c2ccc(O)cc2)c2sc(-c3ccncc3)cc12; 1
12) COc1cccc(CNC(=O)NC2CCN(c3ccnc(Nc4cc(OC)c(OC)c(OC)c4)n3)C2)c1 (stereo not shown); 26
13) OCCn1cc(-c2cnc3nnn(Cc4ccc5ncccc5c4)c3n2)cn1; 0
14) O=C(Nc1ccccc1)c1cccc(Oc2ccc3nccn3n2)c1; 0
15) Cc1nnc(-c2ccc3occ(-c4ccc(S(C)=O)cc4)c3n2)o1 (stereo not shown); 0
16) O=C1NCCc2[nH]c(-c3ccncc3)cc21; 20
17) Cn1ccc2ncnc(Oc3ccc(NC(=O)Nc4cc(C(C)(C)C)on4)c(Cl)c3)c21; 87
18) CCCC(=O)Nc1n[nH]c2ncccc12; 20
19) COc1cccc(C2=C(Nc3cccc(Cl)c3)C(=O)NC2=O)c1; 16

---

Each record here notes measured %Inh.
# System: EPHA3
# CONDITIONS USED: concentration: 1 μM,replicates: in singlicate; n = 1
REPORTED ENDPOINT: %Inh

1. FC(F)(F)c1cc(Br)cc(Nc2nccc(-c3cnn4ncccc34)n2)c1; 7%
2. C[C@@H]1CCN(C(=O)N2CCCC2)C[C@@H]1N(C)c1ncnc2[nH]ccc12; 0%
3. O=c1[nH]cc(-c2ccc(O)cc2)c2sc(-c3ccncc3)cc12; 0%
4. COc1cc2nccc(Nc3ccc(Oc4ccccc4)cc3)c2cc1OC.Cl; 0%
5. Cn1cc(-c2cccc3c(N)c(C(N)=O)nnc23)cn1; 24%
6. Cc1n[nH]c2cc(Nc3ccnc(Nc4cccc(CN5CCOCC5)c4)n3)ccc12; 25%
7. COC(=O)Nc1nc2cc(Oc3ccc(NC(=O)Nc4cc(C(F)(F)F)ccc4Cl)cc3)ccc2[nH]1.Cl; 43%
8. CCCC(=O)Nc1n[nH]c2ncccc12; 0%
9. CC(=O)c1c(-c2ccncc2)[nH]c(-c2ccncc2)c1C; 0%
10. CCn1c(-c2nonc2N)nc2cncc(CNC3CCNCC3)c21.Cl; 0%
11. OCCn1cc(-c2cnc3nnn(Cc4ccc5ncccc5c4)c3n2)cn1; 0%
12. CC(=O)Nc1nc2cnc(Nc3cc(NC(=O)c4cccc(CC(C)(C)C#N)c4)ccc3C)nc2s1; 65%
13. C[C@@H]1CNc2c(sc3ccc4nc(-c5ccncc5)ccc4c23)C(=O)N1; 0%
14. CS(=O)c1ccc(-c2coc3ccc(-c4n[nH]c(=O)o4)cc23)cc1 (stereo not drawn); 0%
15. CS(=O)(=O)c1cccc(CNc2nc(Nc3ccc4c(c3)[C@@H]3C[C@@H]4CNC3=O)ncc2C(F)(F)F)c1; 6%
16. CC(C)c1nc(-c2cccc(NS(=O)(=O)c3ccccc3)c2)c(-c2ccnc(Nc3ccc4c(c3)CN(C)CC4)n2)s1; 44%
17. Cc1ccc2c(-c3ccnc(Nc4ccc(C(F)(F)F)cc4)n3)cnn2n1; 0%
18. COC(=O)c1cccc(NC(=O)NC2CCN(c3ccnc(NCc4ccc(F)cc4)n3)CC2)c1; 0%

---

# Tested on: RAF1
# CONDITIONS USED: concentration: 1 μM,replicates: in singlicate; n = 1
Each record here notes measured %Inh.
REPORTED ENDPOINT: %Inh (%)

1) COc1cccc(OC)c1C(=O)Nc1cccc(-c2nn3ccccc3c2-c2ccnc(Nc3cccc(F)c3)n2)c1 [GSK361065]; 29
2) COc1cc2nccc(Nc3ccc(Oc4ccccc4)cc3)c2cc1OC.Cl [GI261656]; 11
3) N#Cc1cccc(C(=O)NC2CCN(c3ccnc(Nc4ccc(F)cc4)n3)C2)c1 (stereo not drawn) [GSK1379708]; 2
4) Cn1ccc2ncnc(Oc3ccc(NC(=O)Nc4cnn(C(C)(C)C)c4)c(Cl)c3)c21; 44
5) FC(F)(F)c1cc(Br)cc(Nc2nccc(-c3cnn4ncccc34)n2)c1 [GW810578]; 0
6) Cc1nnc(-c2ccc3occ(-c4ccc(S(C)=O)cc4)c3n2)o1 (stereo not drawn); 14
7) CCOC(=O)N1CCC(n2cnc(-c3ccc(F)cc3)c2-c2ccnc(N)n2)CC1 [SB-219952]; 0
8) Cc1ccc2c(-c3ccnc(Nc4ccc(C(F)(F)F)cc4)n3)cnn2n1 [GW819776]; 15
9) CC(C)c1nc(-c2cccc(NS(=O)(=O)c3ccccc3)c2)c(-c2ccnc(Nc3ccc4c(c3)CN(C)CC4)n2)s1 [GSK1649598]; 87
10) CCCC(=O)Nc1n[nH]c2ncccc12 [SB-601436]; 0
11) COc1cccc(CNC(=O)NC2CCN(c3ccnc(Nc4cc(OC)c(OC)c(OC)c4)n3)C2)c1 (stereo not drawn) [GSK1379765]; 21
12) NC(=O)c1ccc(-c2cc3ncnc(SCC(=O)O)c3s2)cc1; 3
13) CN(c1ccccc1CNc1nc(Nc2ccc3c(c2)CC(=O)N3)ncc1C(F)(F)F)S(C)(=O)=O; 0
14) CCn1c(-c2nonc2N)nc2cncc(CNC3CCNCC3)c21.Cl [SB-747651]; 97.5
15) C[C@@H]1CNc2c(sc3ccc4nc(-c5ccncc5)ccc4c23)C(=O)N1; 0
16) CCn1c(-c2nonc2N)nc2cncc(Br)c21 [SB-738004]; 10
17) CC(=O)Nc1ccc(-c2cc3ncnc(SCC(=O)O)c3s2)cc1; 14
18) COc1cc2ncn(-c3cc(OCC4CCCCC4)c(C(N)=O)s3)c2cc1OC [GSK204559]; 9

---

Each record here notes measured %Inh.
# Tested on: EPHA2
# CONDITIONS USED: concentration: 1 μM,replicates: in singlicate; n = 1
REPORTED ENDPOINT: %Inh (%)

1. COc1ccc(Nc2nccc(N3CCC(NC(=O)c4cccc(C#N)c4)C3)n2)cc1 (stereo not drawn); 0
2. O=C1NCCc2[nH]c(-c3ccncc3)cc21; 0
3. CCn1c(-c2nonc2N)nc2cncc(CNC3CCNCC3)c21.Cl; 0
4. COc1cc(Nc2nccc(N3CCC(NC(=O)c4cccc(C#N)c4)C3)n2)cc(OC)c1OC (stereo not drawn); 2
5. Cc1ccc2c(-c3ccnc(Nc4ccc(C(F)(F)F)cc4)n3)cnn2n1; 0
6. c1ccc(Oc2ccc(Nc3ccnc4ccc(-c5ccccn5)cc34)cc2)cc1; 13
7. O=C(NOCC1CC1)c1cc(Br)c(F)c(F)c1Nc1ccc(I)cc1Cl; 0
8. Cc1ccc(Nc2ccnc(Nc3ccc4c(c3)CS(=O)(=O)C4)n2)cc1O.Cl; 83
9. CN(c1ccccc1CNc1nc(Nc2ccc3c(c2)CC(=O)N3)ncc1C(F)(F)F)S(C)(=O)=O; 4

---

# Tested on: TAOK2
# CONDITIONS USED: concentration: 1 μM,replicates: in singlicate; n = 1
REPORTED ENDPOINT: %Inh (%)

1. C[C@@H]1CNc2c(sc3ccc4nc(-c5ccc(O)cc5)ccc4c23)C(=O)N1; 0
2. Cl.c1ccc(Oc2ccc(Nc3ccnc4cc(-c5ccc(CN6CCNCC6)o5)ccc34)cc2)nc1 [GW567142]; 0
3. Cc1ccc2c(-c3ccnc(Nc4ccc(C(F)(F)F)cc4)n3)cnn2n1 [GW819776]; 23
4. CCCC(=O)Nc1n[nH]c2ncccc12 [SB-601436]; 3
5. O=c1[nH]cc(-c2ccc(O)cc2)c2sc(-c3ccncc3)cc12 [GSK1033723]; 0
6. Cl.Nc1n[nH]c2cc(-c3ccccn3)ccc12 [GSK2189892]; 0
7. CC(C(=O)NC1CCN(c2ccnc(Nc3ccc(F)cc3)n2)C1)c1ccc(Cl)cc1 (stereo not drawn) [GSK1379713]; 0
8. Cc1ccc(CC(=O)N2CCc3cc(-c4cn(C)c5ncnc(N)c45)ccc32)cc1 [GSK2634758]; 0
9. O=C(NCC1CC1)c1ccc(-c2cc(C(=O)NC3CC3)ccc2F)cc1 [GW810445]; 0
10. COc1cc2c(Nc3ccc(NC(=O)c4ccccc4)cc3)ncnc2cc1OCCCN1CCOCC1 [GSK301329]; 0
11. CCOC(=O)N1CCC(n2cnc(-c3ccc(F)cc3)c2-c2ccnc(N)n2)CC1 [SB-219952]; 3
12. O=C(Nc1ccc(Oc2ccc3nc(NC(=O)C4CC4)cn3n2)c(F)c1)c1cccn(-c2ccccc2)c1=O; 0
13. CC(=O)Nc1nc2cnc(Nc3cc(NC(=O)c4cccc(CC(C)(C)C#N)c4)ccc3C)nc2s1; 0
14. Cn1ccc2ncnc(Oc3ccc(NC(=O)Nc4cncc(C(F)(F)F)c4)c(Cl)c3)c21; 0
15. Cc1cccc(-c2nc(Nc3ccncc3)c3sccc3n2)n1 [GW869641]; 7
16. Cc1ccn2nc(-c3ccc(F)cc3)c(-c3ccncc3)c2c1.Cl [GW457859]; 0
17. CN(c1ccc2c(c1)nc(NCc1ccc(F)cc1)n2C)c1ccnc(Nc2ccc(CS(C)(=O)=O)cc2)n1.Cl [GW813244]; 61
18. CN1CCN(CCCNc2nccc(-c3c(-c4ccc(F)cc4)nn4cc(C(N)=O)ccc34)n2)CC1 [GW622475]; 0
19. Cc1nnc(-c2ccc3occ(-c4ccc(S(C)=O)cc4)c3n2)o1 (stereo not drawn); 0
20. Cn1ccc2ncnc(Oc3ccc(NC(=O)Nc4ccnc(C(F)(F)F)c4)c(Cl)c3)c21; 0
21. OCCn1cc(-c2cnc3nnn(Cc4ccc5ncccc5c4)c3n2)cn1; 0
22. C[C@@H]1CNc2c(sc3ccc4nc(-c5ccncc5)ccc4c23)C(=O)N1; 0
23. C[C@@H](Oc1cc(-n2cnc3ccc(-c4ccncc4)cc32)sc1C(N)=O)c1ccccc1Cl [GSK483724]; 0
24. CC(C)c1nc(-c2cccc(NS(=O)(=O)c3ccccc3)c2)c(-c2ccnc(Nc3ccc4c(c3)CN(C)CC4)n2)s1 [GSK1649598]; 98.5
